- SUBJECT_OF_TEST: DNA (cytosine-5)-methyltransferase 1 (Homo sapiens) (UniProt P26358)
- Sequence (P26358 504-1616 limits assumed): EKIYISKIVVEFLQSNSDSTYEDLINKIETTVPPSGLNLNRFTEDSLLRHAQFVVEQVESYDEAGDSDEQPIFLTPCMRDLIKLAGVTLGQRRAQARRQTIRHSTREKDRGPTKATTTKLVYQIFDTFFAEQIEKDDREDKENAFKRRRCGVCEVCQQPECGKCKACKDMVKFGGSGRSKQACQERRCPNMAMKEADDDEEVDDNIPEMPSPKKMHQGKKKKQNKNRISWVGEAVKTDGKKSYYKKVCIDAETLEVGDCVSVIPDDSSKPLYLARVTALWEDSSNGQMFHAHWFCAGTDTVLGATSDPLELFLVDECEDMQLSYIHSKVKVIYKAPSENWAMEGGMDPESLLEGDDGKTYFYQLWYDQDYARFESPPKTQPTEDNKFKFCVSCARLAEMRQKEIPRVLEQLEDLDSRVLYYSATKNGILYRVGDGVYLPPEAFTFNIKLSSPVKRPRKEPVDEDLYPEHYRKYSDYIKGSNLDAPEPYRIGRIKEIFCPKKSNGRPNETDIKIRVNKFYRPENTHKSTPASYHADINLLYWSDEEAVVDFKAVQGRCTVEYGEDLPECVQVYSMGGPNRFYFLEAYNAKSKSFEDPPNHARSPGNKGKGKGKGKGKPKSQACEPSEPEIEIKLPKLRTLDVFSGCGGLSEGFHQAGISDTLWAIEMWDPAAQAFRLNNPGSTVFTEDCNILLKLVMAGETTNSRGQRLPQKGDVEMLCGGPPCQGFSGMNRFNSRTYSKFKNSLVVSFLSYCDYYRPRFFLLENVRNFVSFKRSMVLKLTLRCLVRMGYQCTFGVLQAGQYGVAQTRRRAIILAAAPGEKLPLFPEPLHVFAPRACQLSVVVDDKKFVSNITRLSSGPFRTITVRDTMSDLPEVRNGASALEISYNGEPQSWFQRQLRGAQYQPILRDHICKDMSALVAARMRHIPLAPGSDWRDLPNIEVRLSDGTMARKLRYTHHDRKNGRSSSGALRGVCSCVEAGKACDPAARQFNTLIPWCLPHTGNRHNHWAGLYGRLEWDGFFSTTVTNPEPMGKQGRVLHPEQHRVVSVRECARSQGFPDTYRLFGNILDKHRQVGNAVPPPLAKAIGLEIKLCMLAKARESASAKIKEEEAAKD
- ASSAY_NAME: inhibition of human DNMT1, hit confirmation – biochemical, molecular beacon, fluorescence, single concentration (AID 602385)
- CONDITION_INFO: DNMT1 molecular beacon HinP1I cleavage, at 10 µM, hits give high values
In all, about 2,300 compounds went through this assay and about 180 (7.8%) were called active. Not all results are given here.
inhibition for assorted compounds
Please give a number only; it is taken to be in %.

Fill: inhibition (DNA (cytosine-5)-methyltransferase 1 (Homo sapiens) (UniProt P26358)) for this compound `COc1ccc2[nH]c(=O)c(-c3noc(-c4ccc(F)cc4)n3)cc2c1`
0.63

Fill: inhibition (DNA (cytosine-5)-methyltransferase 1 (Homo sapiens) (UniProt P26358)) for this compound Oc1c(C(c2ccco2)N2CCC3(CC2)OCCO3)sc2ncnn12 (stereo unspecified)
1.28

Fill: inhibition (DNA (cytosine-5)-methyltransferase 1 (Homo sapiens) (UniProt P26358)) for this compound `O=C(NNc1ccccn1)c1ccc(Cl)nc1`
0.99

Fill: inhibition (DNA (cytosine-5)-methyltransferase 1 (Homo sapiens) (UniProt P26358)) for this compound `NNc1cccc(C=Cc2ccccc2)cc1=O`
1.25

Fill: inhibition (DNA (cytosine-5)-methyltransferase 1 (Homo sapiens) (UniProt P26358)) for this compound `CSc1ccc(CNC(=O)c2ccc(NC(=O)C3=CSCCO3)cc2)cc1`
5.27

Fill: inhibition (DNA (cytosine-5)-methyltransferase 1 (Homo sapiens) (UniProt P26358)) for this compound `CN(Cc1nc2ccc(F)cc2[nH]1)Cc1nc(CC2CC2)no1`
4.53

----------
inhibition for assorted compounds
- SUBJECT_OF_TEST: DNA (cytosine-5)-methyltransferase 1 (Homo sapiens) (UniProt P26358)
- ASSAY_NAME: inhibition of human DNMT1, hit confirmation – biochemical, molecular beacon, fluorescence, single concentration (AID 602385)
- CONDITION_INFO: DNMT1 molecular beacon HinP1I cleavage, at 10 µM, hits give high values
About 180 (7.8%) of roughly 2,300 compounds were called active. These entries were drawn from the full list.
Please give a number only; it is taken to be in %.

{"COMPOUND": "Cc1ccc(-c2nnc(-c3ccc(NC(=O)c4cccs4)cc3)o2)cc1", "inhibition, %": 3.86}
{"COMPOUND": "CCOC(=O)/C(C#N)=C/c1ccc(OCC(=O)Nc2ccccc2)c(OC)c1", "inhibition, %": 4.96}
{"COMPOUND": "CCN1C(=O)c2cccc3c(N)ccc1c23", "inhibition, %": 2.42}
{"COMPOUND": "O=C(Nc1cccc(F)c1)c1cc(-c2ccco2)nc2ccccc12", "inhibition, %": 1.53}
{"COMPOUND": "O=C(Cn1nnc(-c2ccccc2)n1)N/N=C/c1ccc(-c2ccc(Cl)cc2)o1", "inhibition, %": 2.46}
{"COMPOUND": "COc1cccc(C(=O)Nc2ccc(N3CCCC3)cc2)c1", "inhibition, %": 20.5}
{"COMPOUND": "O=C(c1cccs1)N1CCC(c2nc3ccccc3s2)CC1", "inhibition, %": 1.54}
{"COMPOUND": "CCOC(=O)c1c(NC(=S)NC(=O)/C=C/c2cccs2)sc(C)c1C", "inhibition, %": 0.76}
{"COMPOUND": "O=C(COC(=O)c1ccccc1O)NCc1ccco1", "inhibition, %": 3.59}
{"COMPOUND": "O=C(CN1CCCSc2ccccc21)N1CCN(S(=O)(=O)c2cccc(F)c2)CC1", "inhibition, %": 2.39}

Query compound follows.
Supply reported inhibition belonging to this compound: C=C(C)C(=O)Nc1cccc(C2=NOC3(C2)C[C@H](C(N)=O)N(C(=O)C(c2ccccc2)c2ccccc2)C3)c1 (stereo partly specified)
20.2

----------
inhibition for assorted compounds
- SUBJECT_OF_TEST: DNA (cytosine-5)-methyltransferase 1 (Homo sapiens) (UniProt P26358)
- ASSAY_NAME: inhibition of human DNMT1, hit confirmation – biochemical, molecular beacon, fluorescence, single concentration (AID 602385)
- CONDITION_INFO: DNMT1 molecular beacon HinP1I cleavage, at 10 µM, hits give high values
Hit rate of the full screen: of about 2,300 compounds, about 180 (7.8%) were called active. A selection follows.
Please give a number only; it is taken to be in %.

Worked cases, inhibition given:
{"COMPOUND": "CCc1nn(-c2cc(Oc3cccc4ccccc34)nc(-c3ccccc3)n2)c(N)c1C#N", "NUMBER": -0.43}
{"COMPOUND": "Cc1ccc(Cc2cncc(O)c2)cc1S(=O)(=O)O", "NUMBER": 2.5}
{"COMPOUND": "CC1(C)Cc2nc3sc4c(SCC(=O)NC(c5ccccc5)c5ccccc5)ncnc4c3cc2CO1", "NUMBER": 2.65}
{"COMPOUND": "Cc1ccccc1-n1cc(CNC(=O)CC2C(=O)NCCN2C/C=C/c2ccccc2)cn1 (stereo not given)", "NUMBER": 0.15}

Supply reported inhibition belonging to this compound: `CC(=O)Nc1ccccc1Sc1ccc2c3c(cccc13)C(=O)N(c1ccc(C)cc1)C2=O`
1.49

Supply reported inhibition belonging to this compound: `COc1ccc(OCC(=O)NNC(=O)c2ccc(-c3ccccc3)cc2)cc1`
1.62

----------
inhibition for assorted compounds
- SUBJECT_OF_TEST: DNA (cytosine-5)-methyltransferase 1 (Homo sapiens) (UniProt P26358)
- ASSAY_NAME: inhibition of human DNMT1, hit confirmation – biochemical, molecular beacon, fluorescence, single concentration (AID 602385)
- CONDITION_INFO: DNMT1 molecular beacon HinP1I cleavage, at 10 µM, hits give high values
Screen size: about 2,300 compounds; about 180 (7.8%) were called active. These entries were drawn from the full list.
Please give a number only; it is taken to be in %.

Supply reported inhibition belonging to this compound: `O=C(Nc1cccc(-c2nc3ccccc3[nH]2)c1)c1ccc(C(=O)Nc2cccc(-c3nc4ccccc4[nH]3)c2)cc1`
7.67

Supply reported inhibition belonging to this compound: `CCCCCCc1cc2cc(-c3nnc(-c4ccccc4)o3)c(=O)oc2cc1O`
1.72

Supply reported inhibition belonging to this compound: `Cc1ccc2[nH]c(=O)c(-c3nc4c(C)cccn4c3NCc3ccco3)cc2c1`
-1.18

Supply reported inhibition belonging to this compound: `C=CC[C@@H](CC(=O)N[C@H](CO)Cc1ccccc1)C(=O)N[C@@H](COC(=O)[C@@H](CC=C)Cc1ccc(F)cc1)Cc1c[nH]c2ccccc12`
5.95

----------
- SUBJECT_OF_TEST: DNA (cytosine-5)-methyltransferase 1 (Homo sapiens) (UniProt P26358)
- ASSAY_NAME: inhibition of human DNMT1, hit confirmation – biochemical, molecular beacon, fluorescence, single concentration (AID 602385)
- CONDITION_INFO: DNMT1 molecular beacon HinP1I cleavage, at 10 µM, hits give high values
Hit rate of the full screen: of about 2,300 compounds, about 180 (7.8%) were called active. A selection follows.
QUANTITY_MEASURED: inhibition (%)
Please give a number only; it is taken to be in %.

Worked cases, inhibition given:
{"COMPOUND_STRUCTURE": "CC(=O)c1ccc(NC(=O)c2ccc3c(Cl)c4c(nc3c2)CCCC4)cc1", "inhibition / %": 2.16}
{"COMPOUND_STRUCTURE": "CCOC(=O)N1CC=C2C(C#N)=C(N)C(C#N)(C#N)[C@H](c3cccs3)[C@H]2C1", "inhibition / %": 9.81}
{"COMPOUND_STRUCTURE": "NC1=CC(=O)C(=O)c2cccnc21", "inhibition / %": 58.8}
{"COMPOUND_STRUCTURE": "CC(C)(C)N(Cc1ccccc1)C(=O)c1ccncc1", "inhibition / %": 0.76}

Fill: inhibition (DNA (cytosine-5)-methyltransferase 1 (Homo sapiens) (UniProt P26358)) for this compound `O=C(COC(=O)CCC(=O)c1cccs1)NCc1ccco1`
3.72

Fill: inhibition (DNA (cytosine-5)-methyltransferase 1 (Homo sapiens) (UniProt P26358)) for this compound `Nc1cc2c(cc1Br)-c1ccc(F)cc1C2=O`
-0.64

----------
- SUBJECT_OF_TEST: DNA (cytosine-5)-methyltransferase 1 (Homo sapiens) (UniProt P26358)
- ASSAY_NAME: inhibition of human DNMT1, hit confirmation – biochemical, molecular beacon, fluorescence, single concentration (AID 602385)
- CONDITION_INFO: DNMT1 molecular beacon HinP1I cleavage, at 10 µM, hits give high values
Among all 2,300 compounds or so, about 180 (7.8%) were called active. Only a sample is shown.
So basically: inhibition at 3% or higher? That is 1 (yes). Lower than 3%? That is 0 (no).

Examples from the recorded data:
{"MOLECULE": "C=Cc1ccc(C(=O)N2CCCC(CCC(=O)N3CCN(c4ccccn4)CC3)C2)cc1 (configuration not stated)", "GROUP": "0 (no)"}
{"MOLECULE": "CCc1ccc(NC(=O)CS(=O)CC(=O)NCCCc2ccccc2)cc1 (configuration not stated)", "GROUP": "0 (no)"}
{"MOLECULE": "CCN(C(=O)CSc1nc(N)cc(=O)[nH]1)C1CCS(=O)(=O)C1 (configuration not stated)", "GROUP": "1 (yes)"}

# check: inhibition of `O=C1CCCC(O)=C1C=NCCc1ccccc1` is greater than or equal to 3%
0 (no)

# check: inhibition of `O=C(CCNC(=O)c1ccccc1)NN=Cc1ccc(Br)o1` is greater than or equal to 3%
0 (no)

# check: inhibition of `COc1ccc(Cl)cc1NC(=O)CCS(=O)(=O)c1ccc(Br)cc1` is greater than or equal to 3%
1 (yes)
